Sourced from a melting point compilation (Tetko et al.)

Listing of entries alongside the reported melting point.

QUERY: For the compound `CCOC(=O)c1c(NC(=O)CN(CC)CC)sc2c1CCCC2` , what melting point is on record?
RESULT: 74 to 75 °C

QUERY: State the recorded melting point for this entry: `O=[N+]([O-])c1cccc2c(/C=N\c3ccccc3)cccc12`
RESULT: 83 to 84 °C

QUERY: Request the reported melting point associated with `N#CCOc1ccc(C2=NCCS2)cc1`
RESULT: 83 to 85 °C

QUERY: Request the reported melting point associated with `Cc1ccc(C(N)=NO)cc1F`
RESULT: 105 to 107 °C

QUERY: Which melting point value belongs to `Cn1ccnc1CO` ?
RESULT: 107 to 111 °C

QUERY: Report melting point for `CC1(C)C(C=Cc2cc([N+](=O)[O-])cc([N+](=O)[O-])c2[O-])=[N+](Cc2ccccc2)c2ccccc21` please.
RESULT: 244 to 246 °C

QUERY: Query: melting point; subject: `Cn1c(C(=O)O)cc2sccc21`
RESULT: 154 to 156 °C

QUERY: Sample `N#Cc1ccccc1N=C=O` — what was its melting point?
RESULT: 61 to 62 °C
